TESTED SYSTEM: COX2 (Homo sapiens)
Sequence (P35354 18-604): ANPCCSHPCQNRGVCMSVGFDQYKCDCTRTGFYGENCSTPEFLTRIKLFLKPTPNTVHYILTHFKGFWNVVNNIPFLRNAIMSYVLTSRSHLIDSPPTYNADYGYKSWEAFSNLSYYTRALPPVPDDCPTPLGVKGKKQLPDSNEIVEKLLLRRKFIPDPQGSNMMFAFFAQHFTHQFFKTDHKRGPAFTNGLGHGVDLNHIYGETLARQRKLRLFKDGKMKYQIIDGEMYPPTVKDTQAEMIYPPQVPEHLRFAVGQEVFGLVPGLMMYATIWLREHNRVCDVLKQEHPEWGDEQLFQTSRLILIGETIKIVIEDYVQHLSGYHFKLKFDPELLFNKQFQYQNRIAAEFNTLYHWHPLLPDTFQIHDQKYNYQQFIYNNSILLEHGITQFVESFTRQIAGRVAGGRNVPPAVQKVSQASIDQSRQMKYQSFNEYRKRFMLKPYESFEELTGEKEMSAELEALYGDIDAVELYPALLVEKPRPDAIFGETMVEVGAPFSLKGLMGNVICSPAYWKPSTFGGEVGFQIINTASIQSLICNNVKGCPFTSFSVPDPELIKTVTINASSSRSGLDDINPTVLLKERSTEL
PARAMETER: IC50

Task item: Answer with reported IC50 of C[C@H]1C[C@@H](O)CN(c2ncc(Cl)c(Nc3ccc4c(c3)c3c(c(=O)n4C)OCC(F)(F)[C@H](C4CC4)N3)n2)C1 [12a CCT373566]
Reply: > 10 µM

All values here come from paper PMC9234961.
